# credit: patent US6288265A

Test system: β-lactamase of PS. aeruginosa 18S-H
Test: Minimum protective concentration against β-lactamase of Ps. aeruginosa 18S-H
Assay type: biochemical
Conditions: protection of chromogenic cephem indicator from hydrolysis within 40 min, average of duplicates
From the text: Determination of Minimum Protective Concentrations. The β-lactamase inhibitory properties of cephalosporin-phloroglucide esters VIII and IX as well as 7-(phloroglucidamido)cephalosporins X and XI were studied. Cephalosporins XV and XVI as well as clavulanic acid (XVII) were used in vitro as the reference compound. […]
parameter: Minimum Protective Concentration (MPC), β-lactamase of PS. aeruginosa 18S-H (µg/mL)

INSERT INTO assay_data (compound, measured) VALUES
  ('O=C(COc1ccccc1)N[C@@H]1C(=O)N2C(C(=O)O)=C(COC(=O)c3cccc(Cc4cc(Cl)cc(Cc5ccccc5O)c4O)c3O)CS[C@H]12', 6.74),
  ('O=C(O)[C@H]1/C(=C/CO)O[C@@H]2CC(=O)N21 [XVII, clavulanic acid, reference compound]', 3.00),
  ('O=C(COc1ccccc1)N[C@@H]1C(=O)N2C(C(=O)O)=C(COC(=O)c3cccc(C(=O)c4cc(Cl)cc(C(=O)c5ccccc5O)c4O)c3O)CS[C@H]12', 5.98),
  ('CC(=O)OCC1=C(C(=O)O)N2C(=O)[C@@H](NC(=O)COc3ccccc3)[C@H]2SC1 [XV, reference compound]', 0.97);

====

tested on: S. aureus 95; experiment: Minimum inhibitory concentration, agar dilution, S. aureus 95; assay type: cell-based, Staphylococcus aureus 95; settings: Staphylococcus aureus, 95; agar dilution, average of duplicates; β-lactamase-producing, methicillin resistant organism; read-out: Minimum Inhibitory Concentration (MIC), S. aureus 95
Cut-off 4 µg/mL on MIC: below means criterion met, at or above means criterion not met.

INSERT INTO assay_data (molecule, target, assigned_class) VALUES
  ('CC(=O)OCC1=C(C(=O)O)N2C(=O)[C@@H](NC(=O)c3cccc(Cc4cc(Cl)cc(Cc5ccccc5O)c4O)c3O)[C@H]2SC1 [X]', 'S. aureus 95', 'criterion met'),
  ('CO/N=C(\C(=O)N[C@@H]1C(=O)N2C(C(=O)O)=C(COC(C)=O)CS[C@H]12)c1csc(N)n1 [XVI, reference compound]', 'S. aureus 95', 'criterion not met'),
  ('COC(=O)c1cccc(C(=O)c2cc(Cl)cc(C(=O)c3ccccc3O)c2O)c1O [V]', 'S. aureus 95', 'criterion not met'),
  ('O=C(COc1ccccc1)N[C@@H]1C(=O)N2C(C(=O)O)=C(COC(=O)c3cccc(Cc4cc(Cl)cc(Cc5ccccc5O)c4O)c3O)CS[C@H]12 [VIII]', 'S. aureus 95', 'criterion met'),
  ('CNC(=O)c1cccc(Cc2cc(Cl)cc(Cc3ccccc3O)c2O)c1O [VI]', 'S. aureus 95', 'criterion not met'),
  ('O=C(O)c1cccc(Cc2cc(Cl)cc(Cc3cccc(C(=O)O)c3O)c2O)c1O [XIII, reference compound]', 'S. aureus 95', 'criterion not met'),
  ('CC(=O)OCC1=C(C(=O)O)N2C(=O)[C@@H](NC(=O)c3cccc(C(=O)c4cc(Cl)cc(C(=O)c5ccccc5O)c4O)c3O)[C@H]2SC1 [XI]', 'S. aureus 95', 'criterion met');

====

tested on: S. aureus 95; test: Minimum inhibitory concentration, agar dilution, S. aureus 95; format: cell-based, Staphylococcus aureus 95; conditions: Staphylococcus aureus, 95; agar dilution, average of duplicates; β-lactamase-producing, methicillin resistant organism; read-out: Minimum Inhibitory Concentration (MIC), S. aureus 95
Cut-off 1 µg/mL on MIC: below means fulfilled, at or above means not fulfilled.

INSERT INTO assay_data (molecule, assigned_class) VALUES
  ('CNC(=O)c1cccc(C(=O)c2cc(Cl)cc(C(=O)c3ccccc3O)c2O)c1O', 'not fulfilled'),
  ('O=C(COc1ccccc1)N[C@@H]1C(=O)N2C(C(=O)O)=C(COC(=O)c3cccc(C(=O)c4cc(Cl)cc(C(=O)c5ccccc5O)c4O)c3O)CS[C@H]12', 'not fulfilled'),
  ('Oc1ccccc1Cc1cc(Cl)cc(Cc2ccccc2O)c1O [XII, reference compound]', 'fulfilled'),
  ('O=C(O)c1cccc(Cc2cc(Cl)cc(Cc3ccccc3O)c2O)c1O', 'fulfilled'),
  ('COC(=O)c1cccc(Cc2cc(Cl)cc(Cc3ccccc3O)c2O)c1O', 'not fulfilled'),
  ('O=C(O)c1cccc(C(=O)c2cc(Cl)cc(C(=O)c3cccc(C(=O)O)c3O)c2O)c1O [XIV, reference compound]', 'not fulfilled');

====

target: β-lactamase of S. aureus 95 (Staphylococcus aureus, UniProt P00807); construct: chromogenic cephalosporin (nitrocefin type) hydrolysis; assay: Minimum protective concentration against β-lactamase of S. aureus 95; assay type: biochemical; conditions: protection of chromogenic cephem indicator from hydrolysis within 40 min, average of duplicates
Sequence (P00807 25-281): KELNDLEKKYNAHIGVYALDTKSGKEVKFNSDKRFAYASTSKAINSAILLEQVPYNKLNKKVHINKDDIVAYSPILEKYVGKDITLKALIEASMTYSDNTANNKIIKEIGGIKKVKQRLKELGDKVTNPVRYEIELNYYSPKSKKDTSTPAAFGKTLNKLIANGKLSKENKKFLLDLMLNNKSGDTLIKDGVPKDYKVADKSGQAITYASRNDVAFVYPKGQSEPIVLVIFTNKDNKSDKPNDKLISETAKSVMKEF
Classify by measured Minimum Protective Concentration (MPC), β-lactamase of S. aureus 95: true (1) if it is equal to or exceeds 5 µg/mL, false (0) if it is smaller.

INSERT INTO measurements (compound, assigned_class) VALUES
  ('CC(=O)OCC1=C(C(=O)O)N2C(=O)[C@@H](NC(=O)c3cccc(Cc4cc(Cl)cc(Cc5ccccc5O)c4O)c3O)[C@H]2SC1', 'true (1)'),
  ('CO/N=C(\C(=O)N[C@@H]1C(=O)N2C(C(=O)O)=C(COC(C)=O)CS[C@H]12)c1csc(N)n1 [XVI, reference compound]', 'false (0)'),
  ('CC(=O)OCC1=C(C(=O)O)N2C(=O)[C@@H](NC(=O)COc3ccccc3)[C@H]2SC1 [XV, reference compound]', 'false (0)'),
  ('CC(=O)OCC1=C(C(=O)O)N2C(=O)[C@@H](NC(=O)c3cccc(C(=O)c4cc(Cl)cc(C(=O)c5ccccc5O)c4O)c3O)[C@H]2SC1', 'true (1)'),
  ('O=C(O)[C@H]1/C(=C/CO)O[C@@H]2CC(=O)N21 [XVII, clavulanic acid, reference compound]', 'false (0)'),
  ('O=C(COc1ccccc1)N[C@@H]1C(=O)N2C(C(=O)O)=C(COC(=O)c3cccc(C(=O)c4cc(Cl)cc(C(=O)c5ccccc5O)c4O)c3O)CS[C@H]12', 'false (0)'),
  ('O=C(COc1ccccc1)N[C@@H]1C(=O)N2C(C(=O)O)=C(COC(=O)c3cccc(Cc4cc(Cl)cc(Cc5ccccc5O)c4O)c3O)CS[C@H]12', 'true (1)');
